# ASSAY INFO: Hemolytic activity in human red blood cells at 400 ug/ml incubated for 45 mins by spectrophotometric analysis relative to control
# Assay type: toxicity, cell-based, Erythrocyte
# CONDITION CONTEXT: red blood cells (erythrocytes), at 400 µg/mL, read-out: Activity
Listed here: items and their measured hemolysis at 0.75 h, 400 ug/ml.
ENDPOINT NAME: hemolysis at 0.75 h, 400 ug/ml (%)

CC[C@H](C)[C@@H](NC(=O)[C@@H](NC(=O)[C@H](CCC(=O)O)NC(=O)[C@H](Cc1ccccc1)NC(=O)[C@@H](CCN)NC(=O)[C@H](CCN)NC(=O)[C@H](CO)NC(=O)[C@@H](Cc1c[nH]c2ccccc12)NC(=O)[C@@H](CO)NC(=O)[C@H](CCN)NC(=O)[C@@H](CCN)NC(=O)[C@H](N)C(C)C)C(C)C)C(=O)N[C@@H](C)C(=O)O 0.3
CC[C@H](C)[C@@H](NC(=O)[C@@H](NC(=O)[C@H](CCC(=O)O)NC(=O)[C@H](Cc1ccccc1)NC(=O)[C@@H](CCN)NC(=O)[C@H](CCN)NC(=O)[C@H](CO)NC(=O)[C@@H](Cc1c[nH]c2ccccc12)NC(=O)[C@@H](CO)NC(=O)CNC(=O)[C@@H](CCN)NC(=O)[C@H](N)C(C)C)C(C)(C)C)C(=O)N[C@@H](C)C(=O)O 86.3
CC[C@H](C)[C@@H](NC(=O)[C@@H](NC(=O)[C@H](CCC(=O)O)NC(=O)[C@H](Cc1ccccc1)NC(=O)[C@@H](CCN)NC(=O)[C@H](CCN)NC(=O)[C@H](CO)NC(=O)[C@@H](Cc1c[nH]c2ccccc12)NC(=O)[C@@H](CO)NC(=O)CNC(=O)[C@@H](CCN)NC(=O)[C@H](NC(=O)[C@@H](N)C(C)C)C(C)C)C(C)C)C(=O)N[C@@H](C)C(=O)O 14.6
CC[C@H](C)[C@@H](NC(=O)[C@@H](NC(=O)[C@H](CCC(=O)O)NC(=O)[C@H](Cc1ccccc1)NC(=O)[C@@H](CCN)NC(=O)[C@H](CCN)NC(=O)[C@H](C)NC(=O)[C@@H](Cc1c[nH]c2ccccc12)NC(=O)[C@@H](CO)NC(=O)CNC(=O)[C@@H](CCN)NC(=O)[C@H](N)C(C)C)C(C)C)C(=O)N[C@@H](C)C(=O)O 0
CC[C@H](C)[C@@H](NC(=O)[C@@H](NC(=O)[C@H](CC(=O)O)NC(=O)[C@H](Cc1ccccc1)NC(=O)[C@@H](CCN)NC(=O)[C@H](CCN)NC(=O)[C@H](CO)NC(=O)[C@@H](Cc1c[nH]c2ccccc12)NC(=O)[C@@H](CO)NC(=O)CNC(=O)[C@@H](CCN)NC(=O)[C@H](N)C(C)C)C(C)C)C(=O)N[C@@H](C)C(=O)O 0
CC[C@H](C)[C@@H](NC(=O)[C@@H](NC(=O)[C@H](CCC(=O)O)NC(=O)[C@H](Cc1ccccc1)NC(=O)[C@@H](CCN)NC(=O)[C@H](CCN)NC(=O)[C@H](CO)NC(=O)[C@@H](Cc1c[nH]c2ccccc12)NC(=O)[C@@H](CO)NC(=O)CNC(=O)[C@@H](CCN)NC(=O)[C@H](N)C(C)C)C(C)C)C(=O)N[C@H](C(=O)O)C(C)(C)C 12.1
